Quick note: these are CC50 numbers for system: HT29
Expressed in µM, but write only the number.

Find the recorded CC50 belonging to C=C1C(=O)O[C@H]2[C@H]1CC/C(COC(=O)CCC(=O)NCCCCCCCCCNC(=O)CCC(=O)OC/C1=C/CC[C@@]3(C)O[C@H]3[C@H]3OC(=O)C(=C)[C@@H]3CC1)=C\CC[C@@]1(C)O[C@@H]21 and report it. 5.69

Also check C=C1C(=O)O[C@H]2[C@H]1CC/C(COC(=O)CCC(=O)NCCCCCCCCNC(=O)CCC(=O)OC/C1=C/CC[C@@]3(C)O[C@H]3[C@H]3OC(=O)C(=C)[C@@H]3CC1)=C\CC[C@@]1(C)O[C@@H]21 5.92

====

Hi there, I'd appreciate the recorded CC50 for every entry that follows.
Tested on: NCI-H23
test_method_notes: NCI 60 cell line five dose, Non-Small Cell Lung Cancer
setup_conditions: read-out: LC50
Expressed in µM, but write only the number.

Find the recorded CC50 belonging to C=C1C(=O)O[C@H]2[C@H]1CC/C(COC(=O)NCCCCCNC(=O)OC/C1=C/CC[C@@]3(C)O[C@H]3[C@H]3OC(=O)C(=C)[C@@H]3CC1)=C\CC[C@@]1(C)O[C@@H]21 and report it. 45.5

Also check C=C1C(=O)O[C@H]2[C@H]1CC/C(COC(=O)NCCCCNC(=O)OC/C1=C/CC[C@@]3(C)O[C@H]3[C@H]3OC(=O)C(=C)[C@@H]3CC1)=C\CC[C@@]1(C)O[C@@H]21 30.4

====

Test system: ACHN
test_method_notes: NCI 60 cell line five dose, Renal Cancer
setup_conditions: read-out: LC50
Hi there, I'd appreciate the recorded CC50 for every entry that follows.
Expressed in µM, but write only the number.

Find the recorded CC50 belonging to C=C1C(=O)O[C@H]2[C@H]1CC/C(COC(=O)NCCCCNC(=O)OC/C1=C/CC[C@@]3(C)O[C@H]3[C@H]3OC(=O)C(=C)[C@@H]3CC1)=C\CC[C@@]1(C)O[C@@H]21 [JVM 3-54] and report it. 39.8

Also check C=C1C(=O)O[C@H]2[C@H]1CC/C(COC(=O)NCCCCCNC(=O)OC/C1=C/CC[C@@]3(C)O[C@H]3[C@H]3OC(=O)C(=C)[C@@H]3CC1)=C\CC[C@@]1(C)O[C@@H]21 [JVM 2-76] 35.4

====

Quick note: these are CC50 numbers for system: SK-MEL-5
Expressed in µM, but write only the number.

Find the recorded CC50 belonging to C=C1C(=O)O[C@H]2[C@H]1CC/C(COC(=O)CCC(=O)NCCCCCCCCNC(=O)CCC(=O)OC/C1=C/CC[C@@]3(C)O[C@H]3[C@H]3OC(=O)C(=C)[C@@H]3CC1)=C\CC[C@@]1(C)O[C@@H]21 and report it. 38.4

Also check C=C1C(=O)O[C@H]2[C@H]1CC/C(COC(=O)CCC(=O)NCCCCCCCCCNC(=O)CCC(=O)OC/C1=C/CC[C@@]3(C)O[C@H]3[C@H]3OC(=O)C(=C)[C@@H]3CC1)=C\CC[C@@]1(C)O[C@@H]21 9.37

====

Test system: NCI-H322M
test_method_notes: NCI 60 cell line five dose, Non-Small Cell Lung Cancer
setup_conditions: read-out: LC50
readout_type: CC50 (µM)
Expressed in µM, but write only the number.

Find the recorded CC50 belonging to C=C1C(=O)O[C@H]2[C@H]1CC/C(COC(=O)NCCCCNC(=O)OC/C1=C/CC[C@@]3(C)O[C@H]3[C@H]3OC(=O)C(=C)[C@@H]3CC1)=C\CC[C@@]1(C)O[C@@H]21 [JVM 3-54] and report it. 52.9
